- System: Staphylococcus
- Assay text: Antibacterial activity against coagulase negative Staphylococcus after 18 to 24 hrs by agar dilution method
- Format: functional
Endpoint name: MIC (µg/mL)
Dear colleague, please return just the value in µg/mL, with no unit written.

>>> measured("CC1CN(C[C@@H]2C[C@H](SC3=C(C(=O)O)N4C(=O)C([C@@H](C)O)C4[C@H]3C)CN2)S(=O)(=O)N1 (some centres undefined)")
0.391
>>> measured("C[C@@H](O)C1C(=O)N2C(C(=O)O)=C(S[C@@H]3CN[C@H](CN4CCCNS4(=O)=O)C3)[C@H](C)C12 (some centres undefined)")
0.098
>>> measured("C[C@@H](O)C1C(=O)N2C(C(=O)O)=C(S[C@@H]3CN[C@H](CN4CCN(C)S4(=O)=O)C3)[C@H](C)C12 (some centres undefined)")
0.098

Please look at the following molecule next.
-- ask Any idea what its MIC is? The molecule is C[C@@H](O)C1C(=O)N2C(C(=O)O)=C(S[C@@H]3CN[C@H](CN4CCN(Cc5ccccc5)S4(=O)=O)C3)[C@H](C)C12 (some centres undefined)
-- reply 0.098

###

- Test system: Enterococcus faecalis
- Assay text: Antibacterial activity against Enterococcus faecalis 2347 after 18 to 24 hrs by agar dilution method
- Assay type: functional
Endpoint name: MIC (µg/mL)
Dear colleague, please return just the value in µg/mL, with no unit written.

Worked examples follow.
>>> measured("CCN1CCN(C[C@@H]2C[C@H](SC3=C(C(=O)O)N4C(=O)C([C@@H](C)O)C4[C@H]3C)CN2)S1(=O)=O (stereo partly specified)")
6.25
>>> measured("C[C@@H](O)C1C(=O)N2C(C(=O)O)=C(S[C@@H]3CN[C@H](CN4CCCN(C)S4(=O)=O)C3)[C@H](C)C12 (stereo partly specified)")
3.12
>>> measured("C[C@@H](O)[C@H]1C(=O)N2C(C(=O)O)=C(SCCNC=N)C[C@H]12 [IMIPENEM ANHYDROUS]")
1.56
>>> measured("C[C@@H](O)C1C(=O)N2C(C(=O)O)=C(S[C@@H]3CN[C@H](CN4CCN(Cc5ccccc5)S4(=O)=O)C3)[C@H](C)C12 (stereo partly specified)")
3.12
>>> measured("C[C@@H](O)C1C(=O)N2C(C(=O)O)=C(S[C@@H]3CN[C@H](CN4CCNS4(=O)=O)C3)[C@H](C)C12 (stereo partly specified)")
6.25
>>> measured("C[C@@H](O)C1C(=O)N2C(C(=O)O)=C(S[C@@H]3CN[C@H](CN4CC(C)(C)NS4(=O)=O)C3)[C@H](C)C12 (stereo partly specified)")
6.25

-- ask Form field - read-out: MIC; system: Enterococcus faecalis; submitted item: C[C@@H](O)C1C(=O)N2C(C(=O)O)=C(S[C@@H]3CN[C@H](CN4CCOS4(=O)=O)C3)[C@H](C)C12 (stereo partly specified)
-- reply 6.25

-- ask Form field - read-out: MIC; system: Enterococcus faecalis; submitted item: C[C@@H](O)C1C(=O)N2C(C(=O)O)=C(S[C@@H]3CN[C@H](CN4CCN(C)S4(=O)=O)C3)[C@H](C)C12 (stereo partly specified)
-- reply 6.25

-- ask Form field - read-out: MIC; system: Enterococcus faecalis; submitted item: C[C@@H](O)C1C(=O)N2C(C(=O)O)=C(S[C@@H]3CN[C@H](CN4CCCNS4(=O)=O)C3)[C@H](C)C12 (stereo partly specified)
-- reply 6.25

-- ask Form field - read-out: MIC; system: Enterococcus faecalis; submitted item: "C[C@@H](O)[C@H]1C(=O)N2C(C(=O)O)=C(S[C@@H]3CN[C@H](C(=O)N(C)C)C3)[C@H](C)[C@H]12"
-- reply 12.5

-- ask Form field - read-out: MIC; system: Enterococcus faecalis; submitted item: CC1CN(C[C@@H]2C[C@H](SC3=C(C(=O)O)N4C(=O)C([C@@H](C)O)C4[C@H]3C)CN2)S(=O)(=O)N1 (stereo partly specified)
-- reply 25
